tested on: ENR+CD organoids (ISC to Paneth cell differentiation); assay: Primary screen: basal (non-stimulated) lysozyme secretion LYZ.NS, 2.5-D 384-well ENR+CD organoid differentiation; format: cell-based, mouse; conditions: primary screen, dose 0.08 uM
METRIC: Dose.FC.LYZ.NS (log2 fold change)
Keep it simple and answer with nothing but the number.

Solved entries (count: 3):
compound="O=C(O)CNC(=O)c1c(O)c2ccccc2n(Cc2ccccc2)c1=O [IOX2]" result_number=0.029
compound="Cc1cc(SCc2sc(-c3ccc(C(F)(F)F)c(F)c3)nc2C)ccc1OCC(=O)O [GW0742]" result_number=0.052
compound="C[C@@H](Oc1cc(-n2cnc3ccc(CN4CCN(C)CC4)cc32)sc1C(N)=O)c1ccccc1C(F)(F)F [GSK461364]" result_number=0.078

Now consider a different compound.
Memo: O=C(/C=C\n1cnc(-c2cc(C(F)(F)F)cc(C(F)(F)F)c2)n1)N1CC(F)(F)C1 [KPT-276] , reported Dose.FC.LYZ.NS (log2 fold change): 0.056

----------
tested on: ENR+CD organoids (ISC to Paneth cell differentiation); assay: Primary screen: CCh-stimulated lysozyme secretion LYZ.S, 2.5-D 384-well ENR+CD organoid differentiation; assay type: cell-based, mouse; details: primary screen, dose 0.08 uM
Attribute: Dose.FC.LYZ.S (log2 fold change)
Keep it simple and answer with nothing but the number.

compound=Cn1cc(/C=C2\C(=O)Nc3cccnc32)c2ccccc21 system_tested="ENR+CD organoids (ISC to Paneth cell differentiation)" result_number=0.075

Memo: COC(=O)CCSCc1ccc(-c2onc(C)c2NC(=O)OC(C)c2ccccc2Cl)cc1 (centres unmarked) , reported Dose.FC.LYZ.S (log2 fold change): 0.027

Memo: CCN1CCC[C@H]1CNC(=O)c1cc(S(N)(=O)=O)ccc1OC [Levosulpiride] , reported Dose.FC.LYZ.S (log2 fold change): −0.017

Memo: CCn1c(-c2nonc2N)nc2c(C#CC(C)(C)O)ncc(OC[C@H]3CCCNC3)c21 , reported Dose.FC.LYZ.S (log2 fold change): 0.019

Memo: O=C(Nc1ccccc1)N1CCN(c2nc(-c3ccccc3)ns2)CC1 , reported Dose.FC.LYZ.S (log2 fold change): 0.135

----------
test system: ENR+CD organoids; assay: Primary screen: ATP (CellTiter-Glo 3D, CTG) cell number/viability, 2.5-D 384-well ENR+CD organoids; settings: primary screen, dose 10.00 uM;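 further: compounds given at plating and again on day 3 over a 6-day differentiation from ENR+CV stem-cell-enriched precursors, ATP measured on day 6, plate median as control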
Where a name gives a salt, the structure may show the parent alone.
METRIC: Dose.FC.CTG (log2 fold change)
Dear colleague, please return just the value in log2 fold change, with no unit written.

Solved entries (count: 5):
molecule=Cn1cc(C2=C(c3cn(C4CCN(Cc5ccccn5)CC4)c4ccccc34)C(=O)NC2=O)c2ccccc21 system_tested="ENR+CD organoids" metric=Dose.FC.CTG result_number=−0.081
molecule="CC1C(=O)OC2C(O)C34C5CC(C(C)(C)C)C36C(OC(=O)C6O)OC4(C(=O)O5)C12O (stereo not shown) [Ginkgolide B]" system_tested="ENR+CD organoids" metric=Dose.FC.CTG result_number=0.177
molecule="CCOC(=O)c1cncn1[C@H](C)c1ccccc1 [Etomidate]" system_tested="ENR+CD organoids" metric=Dose.FC.CTG result_number=0.039
molecule="Cl.Cl.Cl.O[C@@H](COc1cccc2ncccc12)CN1CCN([C@@H]2c3ccccc3[C@@H]3[C@H](c4ccccc42)C3(F)F)CC1 [Zosuquidar (LY335979) 3HCl]" system_tested="ENR+CD organoids" metric=Dose.FC.CTG result_number=−0.193
molecule=Cc1ccc(-c2cc(C(F)(F)F)nn2-c2ccc(S(N)(=O)=O)cc2)cc1 system_tested="ENR+CD organoids" metric=Dose.FC.CTG result_number=−0.128

I looked up CC(C)n1c(/C=C/C(O)CC(O)CC(=O)O)c(-c2ccc(F)cc2)c2ccccc21 (stereo not shown) [Fluvastatin Sodium] and its Dose.FC.CTG for ENR+CD organoids was −1.761

I looked up CN(C)CCOc1ccc(/C(=C(/CCCl)c2ccccc2)c2ccccc2)cc1 [Toremifene Citrate] and its Dose.FC.CTG for ENR+CD organoids was −1.396

----------
system: ENR+CD organoids (ISC to Paneth cell differentiation); assay: Primary screen: CCh-stimulated lysozyme secretion LYZ.S, 2.5-D 384-well ENR+CD organoid differentiation; type: cell-based, mouse; details: primary screen, dose 0.08 uM
# if value of Dose.FC.LYZ.S reaches 0.09 log2 fold change, tag label 1; if it stays below, tag label 0

Reference set (6 entries):
compound="Cc1cc(-c2ccc(CC(=O)Nc3ccc(-c4cccnc4)cc3)cc2)ccn1 [Wnt-C59 (C59)]" system_tested="ENR+CD organoids (ISC to Paneth cell differentiation)" category="label 0"
compound="CC(C)Oc1ccc(-c2cnc3c(-c4ccnc5ccccc45)cnn3c2)cc1 [DMH1]" system_tested="ENR+CD organoids (ISC to Paneth cell differentiation)" category="label 0"
compound="Nc1cccc(-c2cc3c(Oc4cccc(O)c4)ncnc3[nH]2)c1 [TWS119]" system_tested="ENR+CD organoids (ISC to Paneth cell differentiation)" category="label 1"
compound="Cc1ccccc1C(=O)Nc1ccc(C(=O)N2CCCC(O)c3cc(Cl)ccc32)c(C)c1 (stereo not shown) [Tolvaptan]" system_tested="ENR+CD organoids (ISC to Paneth cell differentiation)" category="label 0"
compound="Nc1ncnc2n[nH]c(Nc3ccc(F)cc3)c12 [CGP57380]" system_tested="ENR+CD organoids (ISC to Paneth cell differentiation)" category="label 1"
compound="C=CCNC1=C2C[C@@H](C)C[C@H](OC)[C@H](O)[C@@H](C)/C=C(\\C)[C@H](OC(N)=O)[C@@H](OC)/C=C\\C=C(/C)C(=O)NC(=CC1=O)C2=O [17-AAG (Tanespimycin)]" system_tested="ENR+CD organoids (ISC to Paneth cell differentiation)" category="label 0"

QUERY: hey, is Dose.FC.LYZ.S for this one >= 0.09 log2 fold change? C[C@H](Oc1cc(-c2cnn(C3CCNCC3)c2)cnc1N)c1c(Cl)ccc(F)c1Cl [(S)-crizotinib]
RESULT: label 1

QUERY: hey, is Dose.FC.LYZ.S for this one >= 0.09 log2 fold change? CCN[C@H]1CN(CCCOC)S(=O)(=O)c2sc(S(N)(=O)=O)cc21 [Brinzolamide]
RESULT: label 0

QUERY: hey, is Dose.FC.LYZ.S for this one >= 0.09 log2 fold change? Cc1ccc(S(=O)(=O)NC(=O)NN2CC3CCCC3C2)cc1 (stereo not shown) [Gliclazide]
RESULT: label 0

----------
system: ENR+CD organoids (ISC to Paneth cell differentiation); experiment: Primary screen: CCh-stimulated lysozyme secretion LYZ.S, 2.5-D 384-well ENR+CD organoid differentiation; assay type: cell-based, mouse; settings: primary screen, dose 0.08 uM, FC relative to plate median
Where a name gives a salt, the structure may show the parent alone.
Attribute: Dose.FC.LYZ.S
Dear colleague, please return just the value in log2 fold change, with no unit written.

compound="CN1CCC(CNc2ccc3ncc(-c4cccc(OC(F)(F)F)c4)n3n2)CC1 [SGI-1776free base]" system_tested="ENR+CD organoids (ISC to Paneth cell differentiation)" metric=Dose.FC.LYZ.S result_number=0.159

Memo: CC(=O)OCC(=O)NCCCOc1cccc(CN2CCCCC2)c1 [Roxatidine Acetate HCl] , reported Dose.FC.LYZ.S: 0.035

Memo: C#CCN[C@@H]1CCc2ccccc21 [Rasagiline Mesylate] , reported Dose.FC.LYZ.S: 0.140

Memo: C#CCC(Cc1cnc2nc(N)nc(N)c2n1)c1ccc(C(=O)N[C@@H](CCC(=O)O)C(=O)O)cc1 (stereo partly shown) [Pralatrexate] , reported Dose.FC.LYZ.S: −0.183

----------
tested on: ENR+CD organoids (ISC to Paneth cell differentiation); experiment: Primary screen: basal (non-stimulated) lysozyme secretion LYZ.NS, 2.5-D 384-well ENR+CD organoid differentiation; assay type: cell-based, mouse; details: primary screen, dose 2.00 uM
Counter-ions that a name gives are not always drawn.
# if value of Dose.FC.LYZ.NS (log2 fold change) reaches 0.01, tag YES; if it stays below, tag NO

Reference set (2 entries):
molecule="CN1C2CCCC1CC(NC(=O)c1nn(C)c3ccccc13)C2 (centres unmarked) [Granisetron HCl]" category=YES
molecule=Cc1c(C(=O)Nc2ccc(N3C[C@@H](C)O[C@@H](C)C3)nc2)cccc1-c1ccc(OC(F)(F)F)cc1 category=YES

Would you kindly look at the next entry?
QUERY: hey, is Dose.FC.LYZ.NS (log2 fold change) for this one >= 0.01? CC(C)c1ccc(NC(=O)Cn2cnc3c2c(=O)n(C)c(=O)n3C)cc1
RESULT: NO

----------
system: ENR+CD organoids (ISC to Paneth cell differentiation); test: Primary screen: CCh-stimulated lysozyme secretion LYZ.S, 2.5-D 384-well ENR+CD organoid differentiation; format: cell-based, mouse; conditions: primary screen, dose 0.08 uM
Where a name gives a salt, the structure may show the parent alone.
METRIC: Dose.FC.LYZ.S (log2 fold change)

Solved entries (count: 3):
compound="CCc1c2c(nc3ccc(OC(=O)N4CCC(N5CCCCC5)CC4)cc13)-c1cc3c(c(=O)n1C2)COC(=O)[C@]3(O)CC [Irinotecan HCl Trihydrate]" result=−0.040
compound=CC(C)c1ccc(NC(=O)Cn2cnc3c2c(=O)n(C)c(=O)n3C)cc1 result=0.090
compound="CN1C2CCCC1CC(NC(=O)c1nn(C)c3ccccc13)C2 (centres unmarked) [Granisetron HCl]" result=0.015

Memo: Fc1cc(F)c2c(c1)[C@H]1C=CC[C@H]1C(c1cccnc1)N2 (mixture of isomers) [Golgicide A] , reported Dose.FC.LYZ.S (log2 fold change): 0.146

Memo: O=C(C[S+]([O-])Cc1ccco1)NC/C=C\COc1cc(CN2CCCCC2)ccn1 (centres unmarked) , reported Dose.FC.LYZ.S (log2 fold change): 0.052
